Taken from patent US20230338454A1.

I'd be grateful if you could share measured Minimum effective concentration MEC for these entries.
System: HCMV AD169 strain
EXPERIMENTAL DETAILS: Inhibitory effect on HCMV in vitro (MEC, therapeutic index)
Assay type: cell-based, human cytomegalovirus
RUN CONDITIONS: HCMV AD169, 100 times TCD50, 10 days of culture
Answers are plain numbers, in mg/L.

COMPOUND	SYSTEM	UNIT OF MEASUREMENT	VAL
COc1cc(C2OCC3C(c4ccc(OC5OC(C(=O)O)C(O)C(O)C5O)c(OC)c4)OCC23)ccc1O (centres unmarked) [33-Hydroxy-phillygenin glucuronide]	HCMV AD169 strain	mg/L	0.3
COc1ccc(C2OCC3C(c4ccc(OC5OC(C(=O)O)C(O)C(O)C5O)c(O)c4)OCC23)cc1OC (centres unmarked) [9-Hydroxy-phillygenin glucuronide]	HCMV AD169 strain	mg/L	0.4
Nc1nc(O)c2ncn(COC(CO)CO)c2n1 [Ganciclovir (GCV), Ganciclovir, reference compound]	HCMV AD169 strain	mg/L	10
COc1cc(C2OCC3C(c4ccc5c(c4)OCO5)OCC23)ccc1OC1OC(C(=O)O)C(O)C(O)C1O (centres unmarked)	HCMV AD169 strain	mg/L	0.4

Now consider a different compound.
Entry COc1ccc([C@H]2OCC3C2CO[C@H]3c2ccc(O[C@@H]3OC(CO)[C@@H](O)[C@H](O)C3O)c(OC)c2)cc1OC (some centres unmarked) — recorded Minimum effective concentration MEC = 4

----------
I'd be grateful if you could share measured Effective Antiviral Rates (ER%) Parainfluenza virus for these entries.
Tested on: Parainfluenza virus
EXPERIMENTAL DETAILS: Effect of drugs on viral cytopathic effect, effective antiviral rate (ER%)
Format: cell-based
RUN CONDITIONS: Vero cells, 100TCID50, drug at maximum non-toxic concentration, 72 h, MTT
Marks after values point to notes of the source that are not given here.

COMPOUND	VAL
CCOC(=O)C1=C[C@@H](OC(CC)CC)[C@H](NC(C)=O)[C@@H](N)C1 [Oseltamivir Phosphate, reference compound]	94.52** %
NC(=O)c1ncn([C@@H]2O[C@H](CO)[C@@H](O)[C@H]2O)n1 [Ribavirin, reference compound]	91.56** %
COc1ccc([C@H]2OCC3C2CO[C@H]3c2ccc(O[C@@H]3OC(CO)[C@@H](O)[C@H](O)C3O)c(OC)c2)cc1OC (stereo partly shown)	84.96^∗∗ %

Now consider a different compound.
Field Effective Antiviral Rates (ER%) Parainfluenza virus (Parainfluenza virus), entry CC(C)=CCC[C@](C)(O)[C@H]1CC[C@]2(C)[C@@H]1[C@H](O)C[C@@H]1[C@@]3(C)CC[C@H](O[C@@H]4O[C@H](CO)[C@@H](O)[C@H](O)[C@H]4O[C@@H]4O[C@H](CO)[C@@H](O)[C@H](O)[C@H]4O)C(C)(C)[C@@H]3CC[C@]12C [20(R)-Ginsenoside Rg3, 20(R)-ginsenoside Rg3] : 82.21^∗∗ %

----------
System: Adenovirus (AdV)
EXPERIMENTAL DETAILS: Effect of drugs on viral cytopathic effect, effective antiviral rate (ER%)
Assay type: cell-based
RUN CONDITIONS: Vero cells, 100TCID50, drug at maximum non-toxic concentration, 72 h, MTT
I'd be grateful if you could share measured Effective Antiviral Rates (ER%) ADV for these entries.
Give bare numbers, in %.

Worked examples, 2 compounds total:
COMPOUND	Effective Antiviral Rates (ER%) ADV
CC(C)=CCC[C@](C)(O)[C@H]1CC[C@]2(C)[C@@H]1[C@H](O)C[C@@H]1[C@@]3(C)CC[C@H](O[C@@H]4O[C@H](CO)[C@@H](O)[C@H](O)[C@H]4O[C@@H]4O[C@H](CO)[C@@H](O)[C@H](O)[C@H]4O)C(C)(C)[C@@H]3CC[C@]12C [20(R)-Ginsenoside Rg3, 20(R)-ginsenoside Rg3]	51.07
CCOC(=O)C1=C[C@@H](OC(CC)CC)[C@H](NC(C)=O)[C@@H](N)C1 [Oseltamivir Phosphate, reference compound]	10.31

Now consider a different compound.
Entry NC(=O)c1ncn([C@@H]2O[C@H](CO)[C@@H](O)[C@H]2O)n1 [Ribavirin, reference compound] — recorded Effective Antiviral Rates (ER%) ADV = 0.43

----------
Test system: Coxsackievirus B3 (CVB3)
EXPERIMENTAL DETAILS: Effect of drugs on viral cytopathic effect, effective antiviral rate (ER%)
Assay type: cell-based
RUN CONDITIONS: Vero cells, 100TCID50, drug at maximum non-toxic concentration, 72 h, MTT
I'd be grateful if you could share measured Effective Antiviral Rates (ER%) CVB3 for these entries.
Give bare numbers, in %.

Worked examples, 2 compounds total:
COMPOUND	SYSTEM	Effective Antiviral Rates (ER%) CVB3
NC(=O)c1ncn([C@@H]2O[C@H](CO)[C@@H](O)[C@H]2O)n1 [Ribavirin, reference compound]	Coxsackievirus B3 (CVB3)	13.44
CC(C)=CCC[C@](C)(O)[C@H]1CC[C@]2(C)[C@@H]1[C@H](O)C[C@@H]1[C@@]3(C)CC[C@H](O[C@@H]4O[C@H](CO)[C@@H](O)[C@H](O)[C@H]4O[C@@H]4O[C@H](CO)[C@@H](O)[C@H](O)[C@H]4O)C(C)(C)[C@@H]3CC[C@]12C [20(R)-Ginsenoside Rg3, 20(R)-ginsenoside Rg3]	Coxsackievirus B3 (CVB3)	53.75

Now consider a different compound.
Entry CCOC(=O)C1=C[C@@H](OC(CC)CC)[C@H](NC(C)=O)[C@@H](N)C1 [Oseltamivir Phosphate, reference compound] — recorded Effective Antiviral Rates (ER%) CVB3 = 1.64
